These entries and their values trace back to the nanobody polyreactivity screen of Harvey et al. (2022).

PROTOCOL_TEXT: yeast display, Sf9 membrane polyspecificity reagent, FACS + sequencing; frameworks hold sequencing errors
QUANTITY: polyreactivity (PSR sort gate)

SEQ_STRING	MEAS_VALUE
QVQLVESGGGLVQAGGSLRLSCAASGSTFPTNTMGWYRQAPGKERELVATIRKSSGRTYYADSVKGRFTISRDNAKNTVYLQMNSLKPEDTAVYYCNARRYSGALRYDYWGQGTQVTVSS	high polyreactivity
QVQLVESGGGLGQAGGSLRLSCAASGITYDGYAMGWYRQAPGKERELVAAITYSGGRTYYADSVKGRFTISRDNAKNTVYLQMNSLKPEDTAVYYCAVVSRRLYEYDYWGQGTQVTVSS	high polyreactivity
QVQLVESGGGLVQAGGCLRLSCAASGSIFAPIAMGWYRQAPGKERDLVAAITSGVGSTDYADSVKGRFTISRDNAKNNVYLQMNSLKPEDTAVYYCAADSSYLTYWEYDYWGQGTQVTVSS	low polyreactivity
QVQLVESGGGLVQAGGSLRLICAASGRIFVINAMGWYRQAPGKERELVAAITGGGSTNYADSVKGRFTISRDNAKNPVYLQMNSLKPEDTAVYYCAADYRPVRRFYYSRYDDWGQGTQVTVSS	low polyreactivity
QVQLVESGGGLVQAGGSLRFSCAAPGTIFPRYAMGWYRQAPGKERELVAAISRSGGSTYYADSVKGRFTISRDNAKNTVYLQMNSLKPEDTAVYYCATDKVSHRRYDYWGQGTQVTVSS	high polyreactivity
